Measured values drawn from paper PMC8588048 for this set.

- assayed-target: AChE (EC 3.1.1.7, from electric eel) (Electrophorus electricus)
- Construct: purchased Sigma-Aldrich (St. Louis, MO, USA)
- Sequence (O42275 24-633): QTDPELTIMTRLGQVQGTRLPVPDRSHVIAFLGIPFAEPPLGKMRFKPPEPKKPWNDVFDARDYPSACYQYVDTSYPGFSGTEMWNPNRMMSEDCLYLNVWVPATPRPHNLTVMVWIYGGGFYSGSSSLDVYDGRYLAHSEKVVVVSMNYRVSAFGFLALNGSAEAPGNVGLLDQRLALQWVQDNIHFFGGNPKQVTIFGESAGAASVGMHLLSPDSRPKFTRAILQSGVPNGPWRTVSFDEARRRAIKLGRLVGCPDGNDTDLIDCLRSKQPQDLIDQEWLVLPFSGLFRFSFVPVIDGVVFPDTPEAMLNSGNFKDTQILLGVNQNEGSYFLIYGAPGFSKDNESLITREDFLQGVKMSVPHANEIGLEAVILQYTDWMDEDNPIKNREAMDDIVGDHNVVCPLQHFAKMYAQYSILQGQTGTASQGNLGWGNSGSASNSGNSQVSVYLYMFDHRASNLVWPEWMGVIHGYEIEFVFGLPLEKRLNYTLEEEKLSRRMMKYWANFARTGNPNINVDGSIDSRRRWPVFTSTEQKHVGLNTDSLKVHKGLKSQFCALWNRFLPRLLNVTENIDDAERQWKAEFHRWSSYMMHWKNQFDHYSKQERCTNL
- test-protocol: biochemical
- Type: biochemical
parameter: IC50 (µM)
Quick reminder: number only, in µM, skip the unit.

[Q] Which IC50 is listed for C[n+]1cccc(C(=O)[O-])c1 [Compound 3] ?
[A] 97.3

----------
- assayed-target: AChE (EC 3.1.1.7, from electric eel) (Electrophorus electricus)
- Construct: purchased Sigma-Aldrich (St. Louis, MO, USA)
- test-protocol: biochemical
- Format: biochemical
- experimental-conditions: means ± SD, at least three independent experiments; read-out: IC50 AChE
parameter: pIC50
pIC50 (log units): -log10 of the concentration in mol/L.

[Q] API: value(readout=pIC50, system=AChE (EC 3.1.1.7, from electric eel) (Electrophorus electricus)) for record CC(C)CCSS [Compound 4, 3-methylbuthyl hydrodisulfide]
[A] 4.39

[Q] # value lookup — system AChE (EC 3.1.1.7, from electric eel) (Electrophorus electricus), readout pIC50, item N=C(N)NCCCCNC(=O)c1ccc(O)cc1 [Compound 1, N-(4-guanidinobutyl)-4-hydroxybenzamide]
[A] 5.11

[Q] Identify the measured pIC50 of N=C(N)NCCCCNC(=O)c1ccccn1 [Compound 2, N-(4-guanidinobutyl)picolinamide] for AChE (EC 3.1.1.7, from electric eel) (Electrophorus electricus).
[A] 4.21
